SYSTEM: human recombinant serotonin (5-Hydroxytryptamine) 5-HT2C receptor (Homo sapiens, UniProt P28335)
Construct: expressed in transfected cells; host or cells: Chinese hamster ovary (CHO-K1) cells
Sequence (P28335 33-458): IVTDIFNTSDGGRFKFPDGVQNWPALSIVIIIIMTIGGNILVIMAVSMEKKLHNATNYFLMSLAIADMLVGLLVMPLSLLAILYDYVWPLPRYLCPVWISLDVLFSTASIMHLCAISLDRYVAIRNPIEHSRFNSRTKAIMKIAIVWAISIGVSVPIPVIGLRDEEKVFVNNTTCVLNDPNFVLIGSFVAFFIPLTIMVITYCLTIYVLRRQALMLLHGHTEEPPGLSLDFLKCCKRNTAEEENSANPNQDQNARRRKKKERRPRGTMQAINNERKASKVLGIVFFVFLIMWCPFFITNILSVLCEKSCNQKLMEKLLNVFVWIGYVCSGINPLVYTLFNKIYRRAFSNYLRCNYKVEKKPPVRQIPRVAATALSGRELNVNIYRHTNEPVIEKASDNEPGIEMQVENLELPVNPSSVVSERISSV
TEST METHOD NOTES: Serotonin 5-HT2C radioligand binding assay ([3H]Mesulergine)
MEASUREMENT SETUP: compound at 1 μM; 1 nM [3H]Mesulergine; CHO-K1 cells; read-out: Percent Inhibition of ligand binding, Serotonin (1 μM) 5-HT2C
PROPERTY: inhibition at 1 µM (%)
API: value field is a number in %; no unit string.

Cc1ccc2c(c1)c1c(n2CC(=O)c2ccc(F)cc2)CCN(C)C1    104
Cc1ccc2c(c1)c1c(n2CCc2ccc(C)nc2)CCN(CCC#N)C1    16

Q. For the compound shown here, Cc1ccc2c(c1)c1c(n2CCc2ccc(C)nc2)CCN(CCCO)C1 , give the reported inhibition at 1 µM.
A. 90

Q. For the compound shown here, Cc1ccc2c(c1)c1c(n2CCc2ccc(C(F)(F)F)nc2)CCNC1 , give the reported inhibition at 1 µM.
A. 41

Q. For the compound shown here, Cc1ccc2c(c1)c1c(n2CCc2ccc(C)nc2)CCN(CCCCO)C1 , give the reported inhibition at 1 µM.
A. 49

Q. For the compound shown here, Cc1ccc2c(c1)c1c(n2CCc2ccc(CCCN)nc2)CCN(C)C1 , give the reported inhibition at 1 µM.
A. 91

Q. For the compound shown here, Cc1ccc2c(c1)c1c(n2CC(=O)c2ccccc2)CCN(C)C1 , give the reported inhibition at 1 µM.
A. 75

Q. For the compound shown here, CN1CCc2c(c3cc(Cl)ccc3n2CC(=O)c2ccc(Cl)cc2)C1 , give the reported inhibition at 1 µM.
A. 101

Q. For the compound shown here, CN1CCc2c(c3cc(Cl)ccc3n2CC(=O)c2ccccc2)C1 , give the reported inhibition at 1 µM.
A. 94

Q. For the compound shown here, CN1CCc2c(c3cc(Cl)ccc3n2CC(=O)c2ccc(F)cc2)C1 , give the reported inhibition at 1 µM.
A. 97

----------
SYSTEM: human recombinant serotonin (5-Hydroxytryptamine) 5-HT2A receptor (Homo sapiens, UniProt P28223)
Construct: expressed in transfected cells; host or cells: Chinese hamster ovary (CHO-K1) cells
Sequence (P28223 whole entry): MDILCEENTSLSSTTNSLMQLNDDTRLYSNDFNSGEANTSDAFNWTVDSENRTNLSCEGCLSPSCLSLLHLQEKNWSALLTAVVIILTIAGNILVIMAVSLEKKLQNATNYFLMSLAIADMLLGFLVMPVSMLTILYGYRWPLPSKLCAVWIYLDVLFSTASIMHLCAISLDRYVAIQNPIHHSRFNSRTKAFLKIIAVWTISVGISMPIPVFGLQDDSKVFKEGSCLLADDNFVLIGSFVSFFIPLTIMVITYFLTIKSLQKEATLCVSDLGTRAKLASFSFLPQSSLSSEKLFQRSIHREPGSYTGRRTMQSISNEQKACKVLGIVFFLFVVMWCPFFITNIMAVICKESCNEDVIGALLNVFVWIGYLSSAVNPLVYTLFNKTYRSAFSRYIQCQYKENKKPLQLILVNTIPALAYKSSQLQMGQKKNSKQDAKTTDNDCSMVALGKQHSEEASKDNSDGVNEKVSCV
TEST METHOD NOTES: Serotonin 5-HT2A radioligand binding assay ([3H]Ketanserin)
MEASUREMENT SETUP: compound at 0.1 μM; 0.5 nM [3H]Ketanserin; CHO-K1 cells; read-out: Percent Inhibition of ligand binding, Serotonin (0.1 μM) 5-HT2A
Values of inhibition at 0.1 µM greater than or equal to 30% map to met; values below map to not met.

Example cases with answers are listed next.
CCC(O)(Cn1c2c(c3cc(C)ccc31)CN(C)CC2)c1ccncc1 (centres unmarked)    met
Cc1ccc2c(c1)c1c(n2CC(C)(O)c2ccncc2)CCN(CC(F)(F)F)C1 (centres unmarked)    not met
COc1ccc([C@@](C)(O)Cn2c3c(c4cc(C)ccc42)CN(C)CC3)cc1    met
CC(C)c1ccc2c3c(n(CC(C)(O)c4ccncc4)c2c1)CCN(C)C3 (centres unmarked)    not met
CC(C)C(O)(Cn1c2c(c3cc(Cl)ccc31)CN(C)CC2)c1ccncc1 (centres unmarked)    met

Q. For this compound, is measured inhibition at 0.1 µM 30% or higher? CC[C@@](O)(Cn1c2c(c3cc(C)ccc31)CN(C)CC2)c1ccncc1
A. met

Q. For this compound, is measured inhibition at 0.1 µM 30% or higher? Cc1ccc2c(c1)c1c(n2CC2(c3ccncc3)CC2)CCN(C)C1
A. met
